Data provenance: ChEMBL document CHEMBL3414420

Tested on: Thioredoxin reductase 1 (Rattus norvegicus) (UniProt O89049)
Sequence (O89049 whole entry, looked up): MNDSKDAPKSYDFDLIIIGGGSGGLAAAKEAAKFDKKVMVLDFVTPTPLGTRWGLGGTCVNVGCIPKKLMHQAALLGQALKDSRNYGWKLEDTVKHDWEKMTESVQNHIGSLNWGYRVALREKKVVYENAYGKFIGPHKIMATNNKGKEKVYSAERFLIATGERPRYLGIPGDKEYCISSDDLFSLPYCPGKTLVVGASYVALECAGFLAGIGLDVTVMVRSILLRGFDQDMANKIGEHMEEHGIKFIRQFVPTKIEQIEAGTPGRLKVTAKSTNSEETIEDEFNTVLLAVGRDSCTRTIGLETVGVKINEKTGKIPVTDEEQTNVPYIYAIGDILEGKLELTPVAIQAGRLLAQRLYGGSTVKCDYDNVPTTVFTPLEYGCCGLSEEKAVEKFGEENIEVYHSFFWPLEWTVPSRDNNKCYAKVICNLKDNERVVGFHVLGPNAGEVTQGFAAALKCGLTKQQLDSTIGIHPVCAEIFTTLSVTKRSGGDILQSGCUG
Run description: In vitro inhibition of NADPH-reduced TrxR (unknown origin) after 2 hrs incubation by microplate reader
Activity calls are given as the source filed them. The calls are words filed in the database; no cut-off is given here.
Property measured: inhibition

>>> meas_value("COc1cc(OC)c(C(=O)/C=C/c2ccc(Cl)cc2)c(OC)c1")
"Active"
>>> meas_value("COc1cc(OC)c(C(=O)/C=C/c2ccc(C(F)(F)F)cc2)c(OC)c1")
"Active"
>>> meas_value("COc1cc(O)c(CC=C(C)C)c(O)c1C(=O)/C=C/c1ccc(C(F)(F)F)cc1")
"Active"
>>> meas_value("COc1cc(O)cc(O)c1C(=O)/C=C/c1cccc([N+](=O)[O-])c1")
"Active"
